meta.source: ChEMBL document CHEMBL1949618

- SYSTEM TESTED: Eukaryotic translation initiation factor 4E (Oryctolagus cuniculus) (UniProt P29338)
- Sequence (P29338 whole entry): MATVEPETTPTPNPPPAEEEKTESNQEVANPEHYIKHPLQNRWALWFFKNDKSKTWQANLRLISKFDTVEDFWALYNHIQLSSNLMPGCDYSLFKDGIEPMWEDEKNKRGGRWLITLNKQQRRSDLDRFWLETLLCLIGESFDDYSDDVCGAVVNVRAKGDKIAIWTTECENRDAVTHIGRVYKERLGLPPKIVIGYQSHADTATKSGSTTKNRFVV
- TEST METHOD NOTES: Inhibition of eIF4E-mediated mRNA translation in rabbit reticulocyte lysate assessed as translation efficiency after 60 mins by luciferase reporter gene assay relative to m7GpppG-capped mRNA
For each entry below, report its fold change (FC) value.
Output: the number by itself.

The value of fold change (FC) recorded for CO[C@H]1[C@@H](O)[C@H](n2c[n+](C)c3c(O)nc(N)nc32)O[C@@H]1COP(=O)(O)OP(=O)([O-])OP(=O)(O)OC[C@H]1O[C@@H](n2cnc3c(=O)[nH]c(N)nc32)[C@H](O)[C@@H]1O when tested on Eukaryotic translation initiation factor 4E (Oryctolagus cuniculus) (UniProt P29338) reads 1.47

The value of fold change (FC) recorded for C[n+]1cn([C@@H]2O[C@H](COP(=O)(O)OP(=O)([O-])OP(=O)(O)OC[C@H]3O[C@@H](n4cnc5c(=O)[nH]c(N)nc54)[C@H](O)[C@@H]3O)[C@@H](O)[C@H]2O)c2nc(N)nc(O)c21 when tested on Eukaryotic translation initiation factor 4E (Oryctolagus cuniculus) (UniProt P29338) reads 1

The value of fold change (FC) recorded for CO[C@@H]1[C@H](O)[C@@H](COP(=O)([O-])OP(=O)(O)CP(=O)(O)OC[C@H]2O[C@@H](n3cnc4c(=O)[nH]c(N)nc43)[C@H](O)[C@@H]2O)O[C@H]1n1c[n+](C)c2c(O)nc(N)nc21 when tested on Eukaryotic translation initiation factor 4E (Oryctolagus cuniculus) (UniProt P29338) reads 1.25
